- System: Caco-2 cell monolayers
- STATED CONDITIONS: pH 7.4
READOUT TYPE: Papp

# compound O=c1c2cccc(O)c2nc2n1CCc1c-2[nH]c2ccccc12 [1-HRUP, 1-hydroxyrutaecarpine] ; its Papp = ≥ 1 ×10⁻⁶ cm/s

----------
- PROCEDURE TEXT: in vitro
- STATED CONDITIONS: human, Caco-2, pH 7.4
Record form. Attribute: Papp at 120 min. Fill in for each entry.

| MOLECULE | Papp at 120 min |
| --- | --- |
| C[n+]1c2n(c(=O)c3ccccc31)CCc1c-2[nH]c2ccccc12 [dehydroevodiamine] | 10 ×10⁻⁶ cm/s |
| O=c1c2ccccc2nc2n1CCc1c-2[nH]c2ccccc12 | ≥ 1 ×10⁻⁶ cm/s |

Notebook: `COc1ccc2c(OC)c3ccoc3nc2c1` , Papp at 120 min read as ~10 ×10⁻⁶ cm/s
